- measuredTarget: SMYD2 (Homo sapiens, UniProt Q9NRG4)
- Construct: Full length SMYD2 (NP 064582.2) was cloned; His6 (N, cleaved yes); FLAG (N); made in house; host or cells: Sf9 insect cells
- Sequence (Q9NRG4 whole entry): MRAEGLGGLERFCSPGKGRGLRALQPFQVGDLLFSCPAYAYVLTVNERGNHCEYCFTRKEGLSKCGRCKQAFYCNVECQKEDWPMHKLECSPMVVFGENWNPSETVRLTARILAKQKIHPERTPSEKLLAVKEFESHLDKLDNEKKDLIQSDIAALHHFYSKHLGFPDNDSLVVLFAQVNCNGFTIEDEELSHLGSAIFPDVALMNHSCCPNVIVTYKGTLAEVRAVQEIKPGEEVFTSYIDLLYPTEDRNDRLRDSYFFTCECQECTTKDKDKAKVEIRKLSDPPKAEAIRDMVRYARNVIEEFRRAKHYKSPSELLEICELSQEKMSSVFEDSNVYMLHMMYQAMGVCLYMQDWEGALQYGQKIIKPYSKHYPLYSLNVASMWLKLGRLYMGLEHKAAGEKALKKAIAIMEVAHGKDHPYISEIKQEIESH
- protocolDescription: SMYD2 Biochemical Assay (3H-SAM, biotinylated peptide substrate, Flashplate)
- conditionDetails: Table 2; average of n = 1 to n = 50; read-out: SMYD2 Biochem IC50
- Text: S-adenosylmethionine (SAM), S-adenosylhomocysteine (SAH), bicine, Tween20, dimethylsulfoxide (DMSO), bovine skin gelatin (BSG), and Tris(2-carboxyethyl)phosphine hydrochloride (TCEP) were purchased from Sigma-Aldrich at the highest level of purity possible. ^3H-SAM was purchase from American Radiolabeled Chemicals with a specific activity of 80 Ci/mmol. 384-well streptavidin Flashplates were purchased from PerkinElmer. […]
The entries below are paired with their reported IC50.

# compound, result
measured = [
    ("C[C@H]1CN(C(=O)CC2CCNCC2)C[C@@H]1NC(=O)c1cc(C2CC2)on1 (racemic)", "> 50 µM"),
    ("C[C@@H]1CN(CCN)C[C@H]1NC(=O)c1cc(C2CC2)on1 (racemic)", "> 50 µM"),
]

Now for the compound whose IC50 we want.
Value of measured IC50 for the entry C[C@@H]1CN(C2CCNCC2)C[C@H]1NC(=O)c1cc(C2CC2)on1 (racemic) : > 50 µM

* * *

- measuredTarget: SMYD2 (Homo sapiens, UniProt Q9NRG4)
- Construct: Full length SMYD2 (NP 064582.2) was cloned; His6 (N, cleaved yes); FLAG (N); made in house; host or cells: Sf9 insect cells
- protocolDescription: SMYD2 Biochemical Assay (3H-SAM, biotinylated peptide substrate, Flashplate)
- conditionDetails: IC50 values are an average of n = 1 to n = 50; read-out: SMYD2 Biochem IC50 (μM)*
measuredQuantity: IC50

# molecule, IC50
measured = [
    ("COc1ncc(CN2C[C@H](C)[C@H](NC(=O)c3cc(C4CC4)on3)C2)cc1Br (racemic)", "40.5 µM"),
    ("CC(C)CCN1C[C@@H](C)[C@H](NC(=O)c2cc(C3CC3)on2)C1 (racemic)", "> 50 µM"),
    ("C[C@@H]1CN(Cc2ccc(Cl)cc2)C[C@H]1NC(=O)c1cc(C2CC2)on1 (racemic)", "> 50 µM"),
    ("C[C@H]1CN(c2ccccc2Cl)C[C@H]1NC(=O)c1cc(C2CC2)on1 (racemic)", "> 50 µM"),
    ("C[C@@H]1CN(CC2CCOCC2)C[C@H]1NC(=O)c1cc(C2CC2)on1 (racemic)", "> 50 µM"),
    ("CCc1nc(C)c(CN2C[C@H](C)[C@H](NC(=O)c3cc(C4CC4)on3)C2)[nH]1 (racemic)", "35.5 µM"),
    ("CC(C)c1cc(C(=O)N[C@@H]2C[C@@H](CNC(=O)C3CCCCC3)N(C3CC3)C2)no1 (stereo in doubt)", "> 50 µM"),
    ("C[C@@H]1CN(Cc2cc([N+](=O)[O-])ccc2F)C[C@H]1NC(=O)c1cc(C2CC2)on1 (racemic)", "> 50 µM"),
]

Per the records, this molecule ( C[C@H]1CN(Cc2ccc(S(C)(=O)=O)cc2)C[C@H]1NC(=O)c1cc(C2CC2)on1 (racemic) ) has IC50 equal to 10.5 µM

Sample C[C@@H]1CN(CC2CCCOC2)C[C@H]1NC(=O)c1cc(C2CC2)on1 (mixture of isomers) ; IC50 observed: > 50 µM

* * *

- measuredTarget: SMYD2 (Homo sapiens)
- Construct: Full length SMYD2 (NP 064582.2) was cloned; His6 (N, cleaved yes); FLAG (N); made in house; host or cells: Sf9 insect cells
- protocolDescription: SMYD2 Biochemical Assay (3H-SAM, biotinylated peptide substrate, Flashplate)
- conditionDetails: IC50 values are an average of n = 1 to n = 50; read-out: SMYD2 Biochem IC50 (μM)*
measuredQuantity: IC50

# compound, result
data = [
    ("C[C@@H]1CN(c2cccnc2)C[C@H]1NC(=O)c1cc(C2CC2)on1 (racemic) [compound 309]", "> 50 µM"),
]

The compound listed as C[C@@H]1CN(CC(=O)N2CCOCC2)C[C@H]1NC(=O)c1cc(C2CC2)on1 (racemic) [compound 271] has a reported IC50 of > 50 µM

Looking up CC(C)C[C@H]1CN(C(C)C)C[C@@H]1NC(=O)c1cc(C2CC2)on1 (racemic) [compound 154] , I see its IC50 listed as > 50 µM

Entry CN1C[C@H](NC(=O)c2cc(C3CC3)on2)[C@@H](C2CC2)C1 (racemic) [compound 141] ; IC50 = > 50 µM

The recorded IC50 for C[C@H]1CN(c2ncccn2)C[C@H]1NC(=O)c1cc(C2CC2)on1 (racemic) [compound 339] is > 50 µM

// C[C@H]1CN(Cc2ccccc2)C[C@H]1NC(=O)c1cc(C2CC2)on1 (racemic) [compound 116] : IC50 value = 4.2 µM

Entry C[C@H]1CN(CC(=O)N2CCCC2)C[C@H]1NC(=O)c1cc(C2CC2)on1 (racemic) [compound 264] — recorded IC50 = > 50 µM

// field: IC50; key: COc1cccc(N2C[C@H](C)[C@H](NC(=O)c3cc(C4CC4)on3)C2)c1 (racemic) [compound 280] ; value = > 50 µM

* * *

Catalogue of IC50 readings, one per entry.
- measuredTarget: SMYD2 (Homo sapiens)
- Construct: Full length SMYD2 (NP 064582.2) was cloned; His6 (N, cleaved yes); FLAG (N); made in house; host or cells: Sf9 insect cells
- protocolDescription: SMYD2 Biochemical Assay (3H-SAM, biotinylated peptide substrate, Flashplate)
- conditionDetails: IC50 values are an average of n = 1 to n = 50; read-out: SMYD2 Biochem IC50 (μM)*

As a guide, the following entries are already answered.
# compound, measuredTarget, measuredQuantity, result
measured = [
    ("C[C@@H]1CN(CC2CCN(C(=O)OC(C)(C)C)CC2)C[C@H]1NC(=O)c1cc(C2CC2)on1 (racemic)", "SMYD2 (Homo sapiens)", "IC50", "> 50 µM"),
    ("C[C@H]1CN(c2ccc(Cl)cc2)C[C@H]1NC(=O)c1cc(C2CC2)on1 (racemic)", "SMYD2 (Homo sapiens)", "IC50", "> 50 µM"),
    ("CC(C)[C@@H]1CN(C)C[C@@H]1NC(=O)c1cc(C2CC2)on1 (racemic)", "SMYD2 (Homo sapiens)", "IC50", "37.4 µM"),
    ("C[C@H]1CN(Cc2ccc(-c3cc(Cl)ccc3Cl)o2)C[C@H]1NC(=O)c1cc(C2CC2)on1 (racemic)", "SMYD2 (Homo sapiens)", "IC50", "> 50 µM"),
    ("CC(c1cc(C(=O)N[C@@H]2CN(C(C)C)C[C@@H]2C)no1)C(F)F (relative stereo)", "SMYD2 (Homo sapiens)", "IC50", "10.2 µM"),
    ("C[C@@H]1CN(Cc2ccc(Cl)cc2Cl)C[C@H]1NC(=O)c1cc(C2CC2)on1 (racemic)", "SMYD2 (Homo sapiens)", "IC50", "> 50 µM"),
    ("C[C@H]1CN(Cc2ccnn2C)C[C@H]1NC(=O)c1cc(C2CC2)on1 (racemic)", "SMYD2 (Homo sapiens)", "IC50", "41.2 µM"),
    ("CC(C)N1C[C@@H](C)[C@H](NC(=O)c2cc(C(C)(C)C)on2)C1 (racemic)", "SMYD2 (Homo sapiens)", "IC50", "> 50 µM"),
    ("C[C@H]1CN(Cc2nccn2C)C[C@H]1NC(=O)c1cc(C2CC2)on1 (racemic)", "SMYD2 (Homo sapiens)", "IC50", "41.1 µM"),
    ("CC[C@H]1CN(C(C)C)C[C@H]1NC(=O)c1cc(C2CC2)on1 (racemic)", "SMYD2 (Homo sapiens)", "IC50", "15.9 µM"),
]

Sure, the documented IC50 for C[C@@H]1CN(c2ccncn2)C[C@H]1NC(=O)c1cc(C2CC2)on1 (racemic) is > 50 µM

The reported IC50 of the compound C[C@H]1CN(CC(F)(F)F)C[C@H]1NC(=O)c1cc(C2CC2)on1 (racemic) was > 50 µM

C[C@H]1CN(Cc2cnc3ncccn23)C[C@H]1NC(=O)c1cc(C2CC2)on1 (racemic) has a reported IC50 of > 50 µM

The reported value for C[C@@H]1CN(c2ccccc2)C[C@H]1NC(=O)c1cc(C2CC2)on1 (racemic) in terms of IC50 is > 50 µM

So, CCC[C@H]1CN(C(C)C)C[C@@H]1NC(=O)c1cc(C2CC2)on1 (racemic) ? Its IC50 was > 50 µM
